target: recombinant human GST-Syk (Homo sapiens, UniProt P43405); construct: purchased Carna Biosciences 08-176; experiment: Homogeneous Time-Resolved Fluorescence (HTRF) assay for the recombinant human Syk enzyme; assay type: biochemical; settings: recombinant human GST-Syk 5 pM, ATP 25 μM, 10-dose titration 10 μM to 0.508 nM; read-out: rhSYK Activity IC50
measuredParameter: IC50 (nM)

- Cc1cc(Nc2nccc(C(F)F)n2)cc(-c2cn(C3CCCCC3O)nn2)c1 (stereo not drawn) [Example 4.34]: 4.1
- CC(O)(CO)Cn1cc(-c2cccc(Nc3nccc(C(F)(F)F)n3)c2)nn1 (single isomer, unassigned) [Example 21.5]: 47
- Cc1cc(Nc2cc(C(F)(F)F)ccn2)nc(-c2cn(C/C=C/c3ccccc3)nn2)c1: 300
- CCC(O)(CC)Cn1cc(-c2cc(C)cc(Nc3cc(C(F)(F)F)ccn3)n2)nn1: 8.1
- Cc1cc(Nc2ncc(F)c(C(F)F)n2)cc(-c2cn(CC3CNC(=O)O3)nn2)c1 (stereo not drawn) [Example 7.36]: 16.2
- Cc1cc(Nc2cc(C(F)F)ccn2)nc(-c2cn(C3CCCCC3O)nn2)c1 (single isomer, unassigned) [Example 7.24]: 1.2
- Cc1cc(Nc2nccc(C(F)F)n2)cc(-c2cn(C(C)C3CNC(=O)O3)nn2)c1 (single isomer, unassigned) [Example 7.3]: 5.5
- Cc1cc(Nc2cc(C(F)(F)F)ccn2)nc(-c2cn(C(C)C(=O)N3CCC(c4ccncc4)C3)nn2)c1 (stereo not drawn): 34.7
- Cc1cc(Nc2ncc(Cl)c(C)n2)cc(-c2cn(CC(C)(O)C(C)(C)O)nn2)c1 (stereo not drawn) [Example 21.11]: 182
- Cc1cc(Nc2nccc(C(F)(F)F)n2)cc(-c2cn(C3CCCCC3O)nn2)c1 (racemic): 17
- Cc1cc(Nc2nccc(C(F)F)n2)cc(-c2cn(CC3CNCCO3)nn2)c1 (single isomer, unassigned) [Example 22.2]: 1.7
- CCOc1ccnc(Nc2cc(C)cc(-c3cn(C(C)c4ccc(C(=O)O)cc4)nn3)n2)c1 (stereo not drawn): 58.7
- Cc1cc(Nc2cc(C(F)(F)F)ccn2)nc(-c2cn(C3CCNC(=O)CC3)nn2)c1 (racemic) [Example 11.3]: 118
- Cc1cc(Nc2cc(C(F)(F)F)ccn2)nc(-c2cn([C@@H](C)C(=O)NCC(N)=O)nn2)c1: 22.8
- COC(=O)[C@@H](C)Cn1cc(-c2cc(C)cc(Nc3cc(C(F)(F)F)ccn3)n2)nn1: 66.4
